target: UniProt:Q9Y5Y4; assay: CRTH2 receptor radioligand binding assay (SPA, [3H]-PGD2 displacement); settings: antagonistic activities of selected compounds
Sequence (Q9Y5Y4 whole entry): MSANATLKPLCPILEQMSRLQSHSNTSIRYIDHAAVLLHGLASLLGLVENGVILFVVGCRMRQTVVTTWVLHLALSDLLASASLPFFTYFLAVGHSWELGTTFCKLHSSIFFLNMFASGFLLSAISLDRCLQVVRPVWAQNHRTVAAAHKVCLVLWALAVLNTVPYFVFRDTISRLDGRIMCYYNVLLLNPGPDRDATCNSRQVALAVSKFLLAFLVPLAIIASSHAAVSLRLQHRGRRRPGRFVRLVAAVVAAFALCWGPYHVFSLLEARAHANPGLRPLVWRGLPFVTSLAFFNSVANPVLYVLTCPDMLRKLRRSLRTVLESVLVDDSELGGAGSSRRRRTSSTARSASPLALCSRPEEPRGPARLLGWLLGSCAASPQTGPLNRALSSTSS
Give Ki for every item shown.
Report the figure in nM without appending any unit label.

-- ask // returns reported Ki for input `CCc1nn(Cc2ccc(-c3nc4cccnc4[nH]3)cc2)c(CC)c1CC(=O)O`
-- reply 12.9

-- ask // returns reported Ki for input `COc1ccc2[nH]c(-c3ccc(Cn4nc(C)c(CC(=O)O)c4C)cc3)nc2n1`
-- reply 9.6

-- ask // returns reported Ki for input `CCc1nn(Cc2ccc(-c3nc4cncc(C)c4[nH]3)cc2)c(CC)c1CC(=O)O`
-- reply 22.6

-- ask // returns reported Ki for input `Cc1cc2nc(-c3ccc(Cn4nc(C)c(CC(=O)O)c4C)c(F)c3)[nH]c2cc1Cl`
-- reply 1.8

-- ask // returns reported Ki for input `Cc1nn(Cc2ccc(-c3nc4cc(F)ccc4[nH]3)cc2F)c(C)c1CC(=O)O`
-- reply 6.5

-- ask // returns reported Ki for input `Cc1nn(Cc2ccc(-c3nc4cc(C(C)(C)C)ccc4[nH]3)cc2)c(C)c1CC(=O)O`
-- reply 0.5

-- ask // returns reported Ki for input `CCc1nn(Cc2ccc(-c3nc4cc(C#N)ccc4[nH]3)cc2)c(CC)c1CC(=O)O`
-- reply 3.7

-- ask // returns reported Ki for input `Cc1nn(Cc2ccc(-c3cc4cc(C(F)(F)F)ccc4[nH]3)cc2)c(C)c1CC(=O)O`
-- reply 11.3

-- ask // returns reported Ki for input `CCc1nn(Cc2ccc(-c3nc4cc(F)ccc4[nH]3)cc2F)c(CC)c1CC(=O)O`
-- reply 1

-- ask // returns reported Ki for input `Cc1nn(Cc2ccc(-c3nc4cc(Br)ccc4[nH]3)cc2)c(C)c1CC(=O)O`
-- reply 1.2

-- ask // returns reported Ki for input `Cc1nn(Cc2ccc(-c3cc4ccc(Cl)cc4[nH]3)cc2F)c(C)c1CC(=O)O`
-- reply 0.8

-- ask // returns reported Ki for input `Cc1nn(Cc2ccc(-c3nc4cc(Cl)cnc4[nH]3)cc2)c(C)c1CC(=O)O`
-- reply 12.4

-- ask // returns reported Ki for input `CCc1nn(Cc2ccc(-c3nc4cc(Br)cnc4[nH]3)cc2)c(CC)c1CC(=O)O`
-- reply 1.5
